Source: patent US20240360179A1

# Test system: AXIN2 transcripts in COLO320DM cells
# Assay protocol: qPCR of AXIN2 transcripts in COLO320DM cells
# Type: cell-based, human
# Test parameters: Reduction of AXIN2 transcripts in COLO320DM cells
pIC50: −log10 of the molar value.
Value kind: pIC50

Retrieve pIC50 measured for Ac-PL3-Glu-Npg-B5-Glu-3COOHF-Aib-Ala-Phe-Lys*3-PyrS2-3Thi-BztA-GlnR*3-Ala-NH2 [I-470] and print it. < 4.70

----------
# Measured on: full-length B-Catenin (Uniprot ID P35222) (Homo sapiens)
# Construct: 10 nM full-length B-Catenin (Uniprot ID P35222)
# Sequence (P35222 whole entry): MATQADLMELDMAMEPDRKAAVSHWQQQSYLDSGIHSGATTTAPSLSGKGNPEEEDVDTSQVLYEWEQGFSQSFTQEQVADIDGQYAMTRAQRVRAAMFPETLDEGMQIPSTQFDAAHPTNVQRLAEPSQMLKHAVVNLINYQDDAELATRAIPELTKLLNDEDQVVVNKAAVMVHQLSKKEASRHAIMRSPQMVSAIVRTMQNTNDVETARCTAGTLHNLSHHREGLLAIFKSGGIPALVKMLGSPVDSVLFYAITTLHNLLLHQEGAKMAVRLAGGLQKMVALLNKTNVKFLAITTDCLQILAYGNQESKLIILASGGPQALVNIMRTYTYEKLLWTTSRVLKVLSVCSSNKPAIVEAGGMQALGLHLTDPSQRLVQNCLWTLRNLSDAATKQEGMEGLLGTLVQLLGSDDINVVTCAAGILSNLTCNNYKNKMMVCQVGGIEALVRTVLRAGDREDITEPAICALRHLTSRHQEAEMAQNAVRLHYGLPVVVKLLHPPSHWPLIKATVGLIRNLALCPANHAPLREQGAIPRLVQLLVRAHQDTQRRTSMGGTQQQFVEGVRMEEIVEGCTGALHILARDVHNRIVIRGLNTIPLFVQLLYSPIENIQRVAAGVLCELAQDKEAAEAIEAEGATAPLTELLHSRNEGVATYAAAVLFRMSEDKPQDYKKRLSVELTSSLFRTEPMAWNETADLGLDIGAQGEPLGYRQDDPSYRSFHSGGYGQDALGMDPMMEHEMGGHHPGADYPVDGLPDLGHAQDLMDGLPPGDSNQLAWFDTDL
# Format: binding
# Test parameters: read-out: Competition Fluorescence Polarization IC50
Value kind: pIC50
Please express pIC50 as -log10 of the molar concentration.

Retrieve pIC50 measured for Ac-PL3-Glu-Npg-B5-Glu-3COOHF-Aib-Ala-Phe-Lys*3-PyrS2-3Thi-BztA-GlnR*3-Ala-NH2 [I-470] and print it. 5.12
